- target_entity: human TRPA1 ion channel (Homo sapiens (Human))
- Sequence (O75762 whole entry): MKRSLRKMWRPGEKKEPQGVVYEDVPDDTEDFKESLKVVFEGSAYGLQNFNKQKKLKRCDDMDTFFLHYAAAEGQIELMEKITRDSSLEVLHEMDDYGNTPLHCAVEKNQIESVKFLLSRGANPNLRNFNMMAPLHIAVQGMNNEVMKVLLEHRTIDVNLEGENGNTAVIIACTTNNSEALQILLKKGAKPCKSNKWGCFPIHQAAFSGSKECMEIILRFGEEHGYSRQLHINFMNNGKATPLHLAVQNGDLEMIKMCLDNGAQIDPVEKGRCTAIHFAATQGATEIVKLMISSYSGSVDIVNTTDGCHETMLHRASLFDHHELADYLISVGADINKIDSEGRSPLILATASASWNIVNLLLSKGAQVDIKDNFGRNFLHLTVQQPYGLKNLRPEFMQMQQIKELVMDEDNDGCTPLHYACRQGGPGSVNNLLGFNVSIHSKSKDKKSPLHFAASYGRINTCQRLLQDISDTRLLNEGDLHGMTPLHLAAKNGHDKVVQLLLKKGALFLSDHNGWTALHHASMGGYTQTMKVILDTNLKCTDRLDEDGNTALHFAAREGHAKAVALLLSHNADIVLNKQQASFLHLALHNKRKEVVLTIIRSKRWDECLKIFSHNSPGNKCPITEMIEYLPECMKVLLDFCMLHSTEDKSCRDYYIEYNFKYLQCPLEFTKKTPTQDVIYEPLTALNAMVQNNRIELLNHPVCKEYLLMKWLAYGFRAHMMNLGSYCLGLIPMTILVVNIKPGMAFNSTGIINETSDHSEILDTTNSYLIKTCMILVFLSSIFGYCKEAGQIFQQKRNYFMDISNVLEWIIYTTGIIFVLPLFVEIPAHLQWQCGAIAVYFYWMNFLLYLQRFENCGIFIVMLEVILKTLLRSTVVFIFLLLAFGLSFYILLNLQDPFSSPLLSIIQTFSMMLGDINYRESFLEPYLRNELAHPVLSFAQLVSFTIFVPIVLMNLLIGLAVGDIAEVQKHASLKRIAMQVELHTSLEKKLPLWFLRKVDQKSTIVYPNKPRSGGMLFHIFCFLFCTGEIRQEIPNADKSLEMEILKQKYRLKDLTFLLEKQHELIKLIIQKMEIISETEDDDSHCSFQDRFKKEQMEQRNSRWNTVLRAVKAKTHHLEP
- experiment_description: Assay A: TRPA1 assay (FLIPR calcium assay, AITC agonism, HEK293 cells over-expressing human TRPA1)
- measurement_context: AITC 10 μM, FLIPRtetra, AUC after AITC addition, read-out: hTRPA1 IC50
pIC50: −log10 of the molar value.
# pIC50 listing for each entry below
assay_readout: pIC50

Cc1c(C(N)=O)oc2ncn(Cc3nnn(C[C@H](O)c4cc5ccccc5s4)n3)c(=O)c12 | 8.00
Cc1oc2ncn(Cc3nnn(C[C@H](O)c4cc5ccc(F)cc5s4)n3)c(=O)c2c1C(N)=O | 8.00
Cc1c(C(N)=O)oc2ncn(Cc3nnn(C[C@H](O)c4cc5cc(Cl)ccc5o4)n3)c(=O)c12 | 7.89
Cc1oc2ncn(Cc3nnn(C[C@H](O)c4ccc(Cl)s4)n3)c(=O)c2c1C(N)=O | 7.70
Cc1oc2ncn(Cc3nnn(C[C@H](O)c4cc5cc(Cl)ccc5o4)n3)c(=O)c2c1C(N)=O | 7.92
Cc1oc2ncn(Cc3nnn(C[C@H](O)c4ccc(Br)cc4)n3)c(=O)c2c1C(N)=O | 7.54
Cc1oc2ncn(Cc3nnn(C[C@H](O)c4cc5ccccc5s4)n3)c(=O)c2c1C(N)=O | 7.96
Cc1c(C(N)=O)oc2ncn(Cc3nnn(C[C@H](O)c4ccc(Cl)cc4)n3)c(=O)c12 | 7.64
Cc1oc2ncn(Cc3nnn(C[C@H](O)c4cc5cccc(F)c5o4)n3)c(=O)c2c1C(N)=O | 7.31
Cc1oc2ncn(Cc3nnn(C[C@H](O)c4cc5ccccc5o4)n3)c(=O)c2c1C(N)=O | 7.59
Cc1ccc([C@@H](O)Cn2nnc(Cn3cnc4oc(C)c(C(N)=O)c4c3=O)n2)cc1 | 7.62
Cc1c(C(N)=O)oc2ncn(Cc3nnn(C[C@H](O)c4ccc(Cl)s4)n3)c(=O)c12 | 8.00
Cc1oc2ncn(Cc3nnn(C[C@H](O)c4ccc(Cl)cc4)n3)c(=O)c2c1C(N)=O | 7.64
Cc1oc2ncn(Cc3nnn(C[C@H](O)c4cc5cc(F)ccc5o4)n3)c(=O)c2c1C(N)=O | 7.74
Cc1ccc([C@@H](O)Cn2nnc(Cn3cnc4oc(C(N)=O)c(C)c4c3=O)n2)cc1 | 7.68

* * *

- experiment_description: Assay C: Hepatocyte clearance
- Type: in vitro ADME, human
- measurement_context: hepatocyte suspension, 5% species serum, 1 μM test compound, six hours
Please use satisfied whenever human Hepatocytes is not below 20 % Qh, and not satisfied whenever it is.

Cc1oc2ncn(Cc3nnn(C[C@H](O)c4cc5cccc(F)c5o4)n3)c(=O)c2c1C(N)=O | satisfied
Cc1oc2ncn(Cc3nnn(C[C@H](O)c4cc5cc(Cl)ccc5o4)n3)c(=O)c2c1C(N)=O | satisfied
Cc1oc2ncn(Cc3nnn(C[C@H](O)c4ccc(Cl)cc4)n3)c(=O)c2c1C(N)=O | not satisfied
Cc1oc2ncn(Cc3nnn(C[C@H](O)c4cc5ccccc5s4)n3)c(=O)c2c1C(N)=O | satisfied
Cc1c(C(N)=O)oc2ncn(Cc3nnn(C[C@H](O)c4ccc(Cl)cc4)n3)c(=O)c12 | not satisfied
Cc1oc2ncn(Cc3nnn(C[C@H](O)c4cc5ccc(F)cc5s4)n3)c(=O)c2c1C(N)=O | satisfied
Cc1c(C(N)=O)oc2ncn(Cc3nnn(C[C@H](O)c4ccc(Cl)s4)n3)c(=O)c12 | not satisfied
Cc1oc2ncn(Cc3nnn(C[C@H](O)c4ccc(Br)cc4)n3)c(=O)c2c1C(N)=O | not satisfied
Cc1oc2ncn(Cc3nnn(C[C@H](O)c4ccc(Cl)s4)n3)c(=O)c2c1C(N)=O | not satisfied
Cc1ccc([C@@H](O)Cn2nnc(Cn3cnc4oc(C(N)=O)c(C)c4c3=O)n2)cc1 | not satisfied
Cc1c(C(N)=O)oc2ncn(Cc3nnn(C[C@H](O)c4cc5cc(Cl)ccc5o4)n3)c(=O)c12 | satisfied
Cc1oc2ncn(Cc3nnn(C[C@H](O)c4cc5ccccc5o4)n3)c(=O)c2c1C(N)=O | not satisfied
Cc1oc2ncn(Cc3nnn(C[C@H](O)c4cc5cc(F)ccc5o4)n3)c(=O)c2c1C(N)=O | satisfied
Cc1ccc([C@@H](O)Cn2nnc(Cn3cnc4oc(C)c(C(N)=O)c4c3=O)n2)cc1 | not satisfied
Cc1c(C(N)=O)oc2ncn(Cc3nnn(C[C@H](O)c4cc5ccccc5s4)n3)c(=O)c12 | satisfied

* * *

- experiment_description: Assay B: Microsomal clearance
- Assay type: in vitro ADME
- measurement_context: pooled liver microsomes, 1 μM test compound, 37° C.; Tables 5 and 6 of the same assay are headed human LM [% Qh]
assay_readout: Assay B result (column head not printed in Table 4)

Cc1oc2ncn(Cc3nnn(C[C@H](O)c4cc5cccc(F)c5o4)n3)c(=O)c2c1C(N)=O [Example 13] | 26%
Cc1oc2ncn(Cc3nnn(C[C@H](O)c4cc5cc(F)ccc5o4)n3)c(=O)c2c1C(N)=O [Example 15] | < 23%
Cc1oc2ncn(Cc3nnn(C[C@H](O)c4ccc(Cl)cc4)n3)c(=O)c2c1C(N)=O [Example 9] | < 23%
Cc1oc2ncn(Cc3nnn(C[C@H](O)c4cc5ccccc5s4)n3)c(=O)c2c1C(N)=O [Example 5] | < 23%
Cc1oc2ncn(Cc3nnn(C[C@H](O)c4cc5ccccc5o4)n3)c(=O)c2c1C(N)=O [Example 11] | < 23%
Cc1oc2ncn(Cc3nnn(C[C@H](O)c4cc5cc(Cl)ccc5o4)n3)c(=O)c2c1C(N)=O [Example 14] | 42%
Cc1oc2ncn(Cc3nnn(C[C@H](O)c4ccc(Br)cc4)n3)c(=O)c2c1C(N)=O [Example 12] | < 23%

These measurements were taken from patent US11661427B2.
